assayText: AUC (0 to 24 hrs) in dog at 10 mg/kg, po
Assay type: ADME, organism-based, Canis lupus familiaris
Parameters: time < 24 hr, dose 10 mg/kg, route oral
measurementSetup: plasma
observable: AUC(0-t) at 24 h (ng·h/mL)
Numbers only, in ng·h/mL.

Query :: Dear colleague, I am looking for the recorded AUC(0-t) at 24 h of the following molecule: N#Cc1c(Oc2ccc(F)c(NC(=O)Cc3cccc(C(F)(F)F)c3)c2)ccc2nc(NC(=O)C3CC3)sc12
Result :: 15500

---

assayText: AUC (0 to 24 hrs) in rat at 25 mg/kg, po
Type: ADME, organism-based
Set-up: time < 24 hr, dose 25 mg/kg, route oral
measurementSetup: plasma
observable: AUC(0-t) at 24 h (ng·h/mL)
Numbers only, in ng·h/mL.

Query :: Value lookup for AUC(0-t) at 24 h; key = N#Cc1c(Oc2ccc(F)c(NC(=O)Cc3cccc(C(F)(F)F)c3)c2)ccc2nc(NC(=O)C3CC3)sc12
Result :: 32500
